ASSAY_SYSTEM: Ephrin type-A receptor 7 (Homo sapiens)
CONDITION: at 1 µM
We begin with a simple list: items and their reported residual activity.
OUTCOME_MEASURE: residual activity (%)

SMILES_INPUT | UNIT_OF_MEASUREMENT | READOUT_NUMBER
O=C(CCCc1ccc(-c2ccccc2F)cc1)Nc1ccc(O)cc1 | % | 102
Nc1n[nH]c2nc3ccccc3nc12 | % | 99
NC(=O)Nc1sc(-c2ccc(F)cc2)cc1C(N)=O | % | 74
Fc1ccc(-c2nc3n(c2-c2ccncc2)CCS3)cc1 | % | 99
CC(C)c1nn(-c2c(Cl)cccc2Cl)c2nc(Cc3ccc(OCCO)cc3)[nH]c(=O)c12 | % | 97
O=C1NC(=O)C(c2c[nH]c3ccccc23)=C1c1c[nH]c2ccccc12 | % | 99
O=C1Cc2c([nH]c3ccc(Br)cc23)-c2ccccc2N1 | % | 98
CC(C)(C)n1nc(Cc2cccc3ccccc23)c2c(N)ncnc21 | % | 89
COc1ccc(Cl)cc1NC(=O)Nc1cc(C)nc2ccccc12 | % | 83
Nc1ncnc2c1cnn2-c1ccccc1 | % | 102
O=c1c(-c2ccc(F)cc2)c(-c2ccncc2)[nH]n1-c1ccc(Cl)cc1 | % | 100

---

ASSAY_SYSTEM: Dual specificity mitogen-activated protein kinase kinase 7 (Homo sapiens)
Sequence (whole entry): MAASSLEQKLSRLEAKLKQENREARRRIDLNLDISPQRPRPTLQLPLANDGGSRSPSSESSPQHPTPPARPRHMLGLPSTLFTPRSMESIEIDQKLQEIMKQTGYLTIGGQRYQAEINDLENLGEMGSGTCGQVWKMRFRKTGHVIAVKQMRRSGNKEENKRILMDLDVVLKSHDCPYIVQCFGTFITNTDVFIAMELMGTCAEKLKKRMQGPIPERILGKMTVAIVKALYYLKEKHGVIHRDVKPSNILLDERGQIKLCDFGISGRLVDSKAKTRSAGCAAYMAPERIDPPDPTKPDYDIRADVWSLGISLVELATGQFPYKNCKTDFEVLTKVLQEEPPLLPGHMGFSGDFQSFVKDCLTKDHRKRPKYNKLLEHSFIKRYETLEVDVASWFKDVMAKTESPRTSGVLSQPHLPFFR
CONDITION: at 1 µM
Reported residual activity by item:

SMILES_INPUT | UNIT_OF_MEASUREMENT | residual activity
O=C1NC(=O)c2c1c1c3ccccc3[nH]c1n1cncc21 | % | 42
O=c1cc(N2CCOCC2)oc2c1ccc1ccccc12 | % | 102
COc1ccc(-c2cnc3c(-c4ccsc4)cnn3c2)cc1 | % | 74
Nc1nc(Nc2ccc(S(N)(=O)=O)cc2)nn1C(=O)c1c(F)cccc1F | % | 104
O=C1Cc2c([nH]c3ccc(Br)cc23)-c2ccccc2N1 | % | 95
O=C1NC(=O)C(c2c[nH]c3ccccc23)=C1c1c[nH]c2ccccc12 | % | 126
CC(C)[C@H](CO)Nc1nc(Nc2cc(N)cc(Cl)c2)c2ncn(C(C)C)c2n1 | % | 95
O=c1c(-c2ccc(F)cc2)c(-c2ccncc2)[nH]n1-c1ccc(Cl)cc1 | % | 77
O=C(c1ccccc1)c1ccc(N2CCOCC2)cc1O | % | 98
N#Cc1c(NC(=O)c2cccc3ccccc23)sc2c1CCCC2 | % | 88
N#C/C(=C\c1ccc(O)c(O)c1)C(=O)NCc1ccccc1 | % | 83
CC(C)c1nn(-c2c(Cl)cccc2Cl)c2nc(Cc3ccc(OCCO)cc3)[nH]c(=O)c12 | % | 84
Nc1ncnc2c1cnn2-c1ccccc1 | % | 97
COc1ccc(COc2ccc(Cc3cnc(N)nc3N)cc2OC)cc1 | % | 113
N#C/C(=C1/Nc2ccccc2S1)c1ccnc(NCCc2cccnc2)n1 | % | 67
O=S(=O)(c1cccc2cnccc12)N1CCCNCC1 | % | 85
Nc1n[nH]c2nc3ccccc3nc12 | % | 88
CC(C)(C)c1nc2c3ccc(F)cc3c3c(=O)[nH]ccc3c2[nH]1 | % | 69
O=C(Nc1nc2ccccc2n1CCN1CCOCC1)c1cccc([N+](=O)[O-])c1 | % | 75
COc1cc2nccc(Oc3ccc(NC(=S)NC(=O)c4ccccc4C)cc3)c2cc1OC | % | 93
O=C1NC(=O)C(c2cn(CCCn3ccnc3)c3ccccc23)=C1Nc1ccccc1 | % | 102
Fc1ccc(-c2nc3n(c2-c2ccncc2)CCS3)cc1 | % | 82
NC(=O)c1ccc(-c2nc(-c3ccc4c(c3)OCCO4)c(-c3ccccn3)[nH]2)cc1 | % | 91

---

ASSAY_SYSTEM: Mitogen-activated protein kinase 3 (Homo sapiens)
CONDITION: at 1 µM
Description: Millipore: Percentage of residual kinase activity of MAPK3 at 1uM relative to control. Control inhibitor: ERK Inhibitor II at 30.0uM. Buffer: 25 mM Tris pH 7.5, 0.02 mM EGTA
Decide using residual activity alone. Strictly below 80%: rule met. Equal to or above 80%: rule not met.

SMILES_INPUT | ASSIGNED_CLASS
Nc1ncnc2[nH]nc(Nc3ccc(F)cc3)c12 | rule not met
COc1cc2nccc(Oc3ccc(NC(=S)NC(=O)c4ccccc4C)cc3)c2cc1OC | rule not met
O=C(CCCc1ccc(-c2ccccc2F)cc1)Nc1ccc(O)cc1 | rule not met
CCCCc1c(-c2ccc(O)cc2)[nH]c2nccnc12 | rule not met
COc1ccc(-c2cnc3c(-c4ccsc4)cnn3c2)cc1 | rule not met
CCCC(=O)Oc1ccc2[nH]c(C(=O)c3cc4ccccc4[nH]3)cc2c1 | rule met
O=C(c1ccccc1)c1ccc(N2CCOCC2)cc1O | rule not met
Nc1nc(Nc2ccc(S(N)(=O)=O)cc2)nn1C(=O)c1c(F)cccc1F | rule not met
O=C(O)/C=C/c1cc(Br)c(Br)c(Br)c1Br | rule not met
O=c1cc(N2CCOCC2)oc2c1ccc1ccccc12 | rule not met
NCCNc1ncc(C(N)=O)c(Nc2cccc(C(F)(F)F)c2)n1 | rule met
Cn1sc(=O)n(Cc2ccccc2)c1=O | rule not met
CC(C)(C)c1nc2c3ccc(F)cc3c3c(=O)[nH]ccc3c2[nH]1 | rule met
CC(C)c1nn(-c2c(Cl)cccc2Cl)c2nc(Cc3ccc(OCCO)cc3)[nH]c(=O)c12 | rule not met
CC(C)[C@H](CO)Nc1nc(Nc2cc(N)cc(Cl)c2)c2ncn(C(C)C)c2n1 | rule not met

---

Listing of entries alongside the reported residual activity.
ASSAY_SYSTEM: Activated CDC42 kinase 1 (Homo sapiens) (UniProt Q07912)
Sequence (Q07912 whole entry, looked up): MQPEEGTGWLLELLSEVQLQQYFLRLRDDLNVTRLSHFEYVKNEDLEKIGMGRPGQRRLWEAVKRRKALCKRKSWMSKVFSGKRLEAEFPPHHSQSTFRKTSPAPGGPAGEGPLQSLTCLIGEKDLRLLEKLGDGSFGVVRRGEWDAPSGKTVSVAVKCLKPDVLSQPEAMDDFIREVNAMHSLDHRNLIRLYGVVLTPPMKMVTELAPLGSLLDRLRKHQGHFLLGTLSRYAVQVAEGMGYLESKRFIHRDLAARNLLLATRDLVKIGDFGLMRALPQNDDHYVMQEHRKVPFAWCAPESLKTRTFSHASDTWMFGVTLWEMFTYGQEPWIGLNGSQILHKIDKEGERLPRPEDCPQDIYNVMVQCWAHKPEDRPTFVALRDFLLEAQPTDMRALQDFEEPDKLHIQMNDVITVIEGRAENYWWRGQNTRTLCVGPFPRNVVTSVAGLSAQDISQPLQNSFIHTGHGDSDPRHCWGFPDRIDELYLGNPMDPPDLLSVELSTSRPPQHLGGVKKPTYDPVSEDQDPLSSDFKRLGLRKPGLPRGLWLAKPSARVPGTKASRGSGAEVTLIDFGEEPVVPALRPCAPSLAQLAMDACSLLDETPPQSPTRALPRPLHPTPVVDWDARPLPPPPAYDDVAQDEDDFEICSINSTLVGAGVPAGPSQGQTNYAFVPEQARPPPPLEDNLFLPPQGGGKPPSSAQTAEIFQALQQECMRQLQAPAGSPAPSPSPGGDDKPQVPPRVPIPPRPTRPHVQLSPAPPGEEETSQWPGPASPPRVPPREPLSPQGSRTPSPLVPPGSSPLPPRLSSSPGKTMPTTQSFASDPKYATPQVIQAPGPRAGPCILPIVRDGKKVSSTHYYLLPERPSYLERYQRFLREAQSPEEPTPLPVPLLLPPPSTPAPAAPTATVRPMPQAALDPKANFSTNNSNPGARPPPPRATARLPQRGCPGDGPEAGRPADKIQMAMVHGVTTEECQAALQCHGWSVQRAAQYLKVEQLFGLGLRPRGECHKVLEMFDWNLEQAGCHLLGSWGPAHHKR
CONDITION: at 1 µM

MOLECULE | residual activity / %
O=C1NC(=O)C(c2c[nH]c3ccccc23)=C1c1c[nH]c2ccccc12 | 73
COc1ccc2c(c1)c(C1=C(c3c[nH]c4ccccc34)C(=O)NC1=O)cn2CCCN(C)C | 65
Cc1cc(C)c(/C=C2\C(=O)Nc3ccccc32)[nH]1 | 52
c1ccc(-c2cnc(Nc3ccc(OCCN4CCCC4)cc3)s2)cc1 | 68
O=C(Nc1nc2ccccc2n1CCN1CCOCC1)c1cccc([N+](=O)[O-])c1 | 81
O=C1C(Cl)=C(N2C(=O)CCC2=O)C(=O)c2ccccc21 | 78
O=C(c1cc2cc(O)ccc2[nH]1)c1cc2cc(O)ccc2[nH]1 | 64
CC(C)[C@H](CO)Nc1nc(Nc2cc(N)cc(Cl)c2)c2ncn(C(C)C)c2n1 | 29
O=C(c1ccccc1)c1ccc(N2CCOCC2)cc1O | 94
CCOC(=O)c1c(C)[nH]c(/C=C2\C(=O)Nc3ccccc32)c1C | 73
O=c1cc(N2CCNCC2)oc2c(-c3ccccc3)cccc12 | 88
Nc1ncnc2c1c(-c1ccc(Oc3ccccc3)cc1)cn2C1CCCC1 | 4
O=C(NC(NC(=S)Nc1ccc(F)c([N+](=O)[O-])c1)C(Cl)(Cl)Cl)C(c1ccccc1)c1ccccc1 (configuration not stated) | 100
COc1cc2nccc(Oc3ccc(NC(=O)Nc4cc(C)on4)c(Cl)c3)c2cc1OC | 20
Nc1ncnc2c1cnn2-c1ccccc1 | 91
Nc1ncnc2[nH]nc(Nc3ccc(F)cc3)c12 | 60
O=C(O)/C=C/c1cc(Br)c(Br)c(Br)c1Br | 79
O=C1Nc2ccc(Cl)cc2/C1=C/c1cc(Cl)c(O)c(Cl)c1 | 48
CN(C)S(=O)(=O)c1ccc2c(c1)/C(=C/c1cc3c([nH]1)CCCC3)C(=O)N2 | 13
Oc1cccc(-c2nc(N3CCOCC3)c3oc4ncccc4c3n2)c1 | 78
COc1ccc(Cl)cc1NC(=O)Nc1cc(C)nc2ccccc12 | 90
CC(C)(C)n1nc(Cc2cccc3ccccc23)c2c(N)ncnc21 | 6

---

ASSAY_SYSTEM: Ephrin type-B receptor 4 (Homo sapiens) (UniProt P54760)
Sequence (P54760 whole entry): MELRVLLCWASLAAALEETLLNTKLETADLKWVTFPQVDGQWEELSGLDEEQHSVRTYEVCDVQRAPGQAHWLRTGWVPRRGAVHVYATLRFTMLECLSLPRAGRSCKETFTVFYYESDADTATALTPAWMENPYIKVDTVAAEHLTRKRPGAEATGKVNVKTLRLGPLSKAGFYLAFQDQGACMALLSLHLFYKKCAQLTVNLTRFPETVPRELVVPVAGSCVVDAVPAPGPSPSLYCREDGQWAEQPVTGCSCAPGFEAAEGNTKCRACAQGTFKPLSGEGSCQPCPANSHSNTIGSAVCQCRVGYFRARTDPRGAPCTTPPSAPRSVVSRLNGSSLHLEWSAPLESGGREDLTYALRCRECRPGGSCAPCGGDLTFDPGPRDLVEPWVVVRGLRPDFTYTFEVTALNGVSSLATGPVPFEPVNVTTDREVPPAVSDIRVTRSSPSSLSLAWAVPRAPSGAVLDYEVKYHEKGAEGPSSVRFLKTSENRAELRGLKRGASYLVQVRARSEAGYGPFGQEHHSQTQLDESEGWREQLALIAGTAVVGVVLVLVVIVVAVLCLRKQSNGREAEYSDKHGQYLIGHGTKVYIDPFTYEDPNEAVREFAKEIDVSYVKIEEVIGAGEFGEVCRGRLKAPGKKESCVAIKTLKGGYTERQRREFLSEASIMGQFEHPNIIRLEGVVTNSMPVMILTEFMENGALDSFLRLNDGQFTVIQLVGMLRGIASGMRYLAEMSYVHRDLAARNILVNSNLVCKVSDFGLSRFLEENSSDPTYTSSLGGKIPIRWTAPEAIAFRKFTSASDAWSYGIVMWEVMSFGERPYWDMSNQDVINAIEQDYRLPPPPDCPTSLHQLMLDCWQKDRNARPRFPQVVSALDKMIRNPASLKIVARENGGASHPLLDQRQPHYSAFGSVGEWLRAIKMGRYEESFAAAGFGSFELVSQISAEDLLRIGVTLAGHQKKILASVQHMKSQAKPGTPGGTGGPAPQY
CONDITION: at 1 µM
Description: Millipore: Percentage of residual kinase activity of EPHB4 at 1uM relative to control. Control inhibitor: PP2 at 30.0uM. Buffer: 8 mM MOPS pH 7.0, 0.2 mM EDTA, 10 mM MnCl2
Tag: T if measured residual activity is not below 80%, F if it is.

SMILES_INPUT | ASSIGNED_CLASS
COc1ccc(Cl)cc1NC(=O)Nc1cc(C)nc2ccccc12 | T
Nc1ncnc2[nH]nc(Nc3ccc(F)cc3)c12 | F
N#C/C(=C\c1ccc(O)c(O)c1)C(=O)NCc1ccccc1 | T
NC(=O)Nc1sc(-c2ccc(F)cc2)cc1C(N)=O | F
COc1cc2c(cc1OC)-c1n[nH]c(Nc3cccc(F)c3)c1C2 | F
Nc1ncnc2c1cnn2-c1ccccc1 | T
N#C/C(=C1/Nc2ccccc2S1)c1ccnc(NCCc2cccnc2)n1 | F
O=c1cc(N2CCOCC2)oc2c1ccc1ccccc12 | T
COc1ccc(COc2ccc(Cc3cnc(N)nc3N)cc2OC)cc1 | T
O=C1NC(=O)C(c2cn(CCCn3ccnc3)c3ccccc23)=C1Nc1ccccc1 | T
N#Cc1c(NC(=O)c2cccc3ccccc23)sc2c1CCCC2 | T
CC(C)[C@H](CO)Nc1nc(Nc2cc(N)cc(Cl)c2)c2ncn(C(C)C)c2n1 | F
NC(=O)c1ccc(-c2nc(-c3ccc4c(c3)OCCO4)c(-c3ccccn3)[nH]2)cc1 | T
Nc1n[nH]c2nc3ccccc3nc12 | T
O=C1Nc2ccccc2/C1=C\c1c(Cl)[nH]c2ccccc12 | T
O=C(CCCc1ccc(-c2ccccc2F)cc1)Nc1ccc(O)cc1 | T
Nc1ncnc2c1c(-c1ccc(Oc3ccccc3)cc1)cn2C1CCCC1 | T
COc1cc2ncnc(Nc3cccc(Cl)c3)c2cc1OC | F
Cn1sc(=O)n(Cc2ccccc2)c1=O | T
O=c1cc(N2CCNCC2)oc2c(-c3ccccc3)cccc12 | T
O=C(Nc1ccc(Cl)cc1)c1ccccc1NCc1ccncc1 | T
